For each of the binders below, state its EC50 of NK cell activation (CD107a-positive NK cells, plate-coated antibody).
target: human NKp46 (full length, on cells) (human, UniProt O76036 22-304); experiment: cell-based or functional assay
Sequence (O76036 22-304 Q82K): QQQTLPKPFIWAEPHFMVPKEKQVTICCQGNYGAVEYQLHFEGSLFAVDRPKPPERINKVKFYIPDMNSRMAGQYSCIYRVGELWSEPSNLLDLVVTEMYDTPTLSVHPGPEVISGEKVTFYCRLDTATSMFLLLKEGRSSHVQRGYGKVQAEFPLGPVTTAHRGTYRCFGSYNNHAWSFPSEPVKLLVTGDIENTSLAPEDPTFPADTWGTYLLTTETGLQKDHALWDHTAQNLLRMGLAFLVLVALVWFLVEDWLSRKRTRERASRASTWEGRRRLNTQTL
One number for each entry, in nM.

// below: answered binders
H1-PA45 humanized antibody (antibody, human IgG1, V domains shown, also called hPA45; not shown: constant region of human IgG1) VH: EVQLVESGGGLVQPGGSLRLSCAASGRTFSRLPMAWVRQAPGKGLEWVSAISWSGGSTYYADSMKGRFTISRDNSKNTLYLQMNSLRAEDTAVYYCAAVGDSAPYSATIVYTDARAYAYWGQGTLVTVSS    7.39
H4-PC11 humanized antibody (antibody, human IgG1, V domains shown, not shown: constant region of human IgG1) VH: EVQLVESGGGLVQPGGSLRLSCAPSPYSANSFSMAWFRQAPGKGREGIACIQAESGSTNVAPSVKGRFTISQDNSKNTLYLQMNSLRAEDTAVYYCAAFKRNVGGCELRPEHWRFWGQGTLVTVSS    1.84

For each entry beneath this line, provide reported EC50 of NK cell activation (CD107a-positive NK cells, plate-coated antibody).
1. H3-PA27 humanized antibody (antibody, human IgG1, V domains shown, not shown: constant region of human IgG1) VH: QVQLVESGGGVVQPGRSLRLSCAASGRTESWYRMGWFRQAPGKGREVVARISGDTNIKYYAGSVKGRFTISRDNSKNTLYLQMSSLRAEDTAVYYCAADRTGATWDYWGQGTLVTVSS
2. H5-PC11 humanized antibody (antibody, human IgG1, V domains shown, not shown: constant region of human IgG1) VH: EVQLVESGGGLVQPGGSLRLSCAPSPYSANSFSMAWFRQAPGKEREGIACIQAESGSTNVAPSVKGRFTISQDNSKNTLYLQMNSLRAEDTAVYYCAAFKRNVGGCELRPEHWRFWGQGTLVTVSS

Result:
7.39
0.95
